Tested on: relapsed AML cells
assay-protocol: Drug sensitivity assay, 1,536-well, 3-day culture with individual approved drugs at 10 μM, viability by alamarBlue
Format: cell-based, human
reported-conditions: number of relapsed AML cases out of 18 tested with >70% cell death; 10 μM, 3-day culture
Measured #Cases >70% cell death of individual entries
assay-endpoint: #Cases >70% cell death

molecule=O=C(CCCN1CCN(c2ccccn2)CC1)c1ccc(F)cc1 recorded_number=1
molecule="O=c1[nH]c2ccccc2n1C1CCN(CCCC(c2ccc(F)cc2)c2ccc(F)cc2)CC1 [PIMOZIDE]" recorded_number=1
molecule=CC[C@]1(O)C[C@@H]2CN(CCc3c([nH]c4ccccc34)[C@@](C(=O)OC)(c3cc4c(cc3OC)N(C)[C@H]3[C@@](O)(C(N)=O)[C@H](O)[C@]5(CC)C=CCN6CC[C@]43[C@@H]65)C2)C1 recorded_number=9
molecule="COc1cccc2c1C(=O)c1c(O)c3c(c(O)c1C2=O)C[C@@](O)(C(=O)CO)C[C@@H]3O[C@H]1C[C@H](N)[C@@H](O)[C@H](C)O1 [EPIRUBICIN]" recorded_number=18
molecule="O=C(NCC1CCCCN1)c1cc(OCC(F)(F)F)ccc1OCC(F)(F)F (stereo not drawn)" recorded_number=1
molecule=CC1(C)CC(=O)c2c(C(F)(F)F)nn(-c3ccc(C(N)=O)c(N[C@H]4CC[C@H](O)CC4)c3)c2C1 recorded_number=18
molecule=CCC(C)(C)C(=O)O[C@H]1C[C@@H](C)C=C2C=C[C@H](C)[C@H](CC[C@@H]3C[C@@H](O)CC(=O)O3)[C@H]21 recorded_number=6
molecule="C[C@]12CC[C@@H]3c4ccc(OS(=O)(=O)O)cc4CC[C@H]3[C@@H]1CCC2=O [ESTROPIPATE]" recorded_number=1
molecule="CC(=O)OCC(=O)[C@@]12OC3(CCCC3)O[C@@H]1C[C@H]1[C@@H]3CCC4=CC(=O)C=C[C@]4(C)[C@@]3(F)[C@@H](O)C[C@@]12C [AMCINONIDE]" recorded_number=1
